Measured pEC50 accompanies every entry in the list below.
test system: Human RSV-A (“Long” strain); test: RSV in vitro cytoprotection assay (CPE, ATPlite) in HEp-2 cells; type: cell-based; details: human respiratory syncytial virus, 96 h; HEp-2 cells, 4-day incubation, ATPlite readout; read-out: Human RSV-A (“Long” strain) EC50
pEC50: −log10 of the molar value.

Cc1ccc(C(=O)Nc2ccc(C(=O)N3CCc4c(sc(-c5nc6cccc(F)c6[nH]5)c4F)-c4ccccc43)cc2)c(N2CC3(CCOCC3)C2)n1 [Example 214]	> 8.00

Recorded pEC50 of Cc1cnc(N2CC3(CCOCC3)C2)c(C(=O)Nc2ccc(C(=O)N3CCc4cc(-c5ccnn5C)sc4-c4ccc(F)cc43)cc2)c1 [Example 161] , please.
> 8.00

Then O=C(Nc1c(F)cc(F)cc1F)c1cc2c(s1)-c1c(cc(F)c(F)c1F)N(C(=O)c1ccc(NC(=O)c3cccnc3N3CC4(CCOCC4)C3)cc1)CC2 [Example 79] ?
7.30 to 8.00

Then CCOCCNc1ncccc1C(=O)Nc1ccc(C(=O)N2CCc3cc(C(=O)Nc4c(F)cccc4F)sc3-c3ccc(F)cc32)cc1 [Example 54] ?
< 7.30

----------
tested on: Human RSV-A (“Long” strain); test: RSV in vitro cytoprotection assay (CPE, ATPlite) in HEp-2 cells; assay type: cell-based; settings: human respiratory syncytial virus, 96 h; HEp-2 cells, 4-day incubation, ATPlite readout; read-out: Human RSV-A (“Long” strain) EC50
endpoint label: EC50

Here's what some known entries look like.
Cc1cnc(N2CC3(CCOCC3)C2)c(C(=O)Nc2ccc(C(=O)N3CCc4cc(-c5ncc(C)o5)sc4-c4ccc(F)cc43)cc2)c1	10 to 50 nM
O=C(Nc1c(F)cc(F)cc1F)c1cc2c(s1)-c1ccc(F)cc1N(C(=O)c1ccc(NC(=O)c3cc4c(nc3N3CC5(CCOCC5)C3)CCC4)cc1)CC2	< 10 nM
Cc1cnc(N2CC3(CCOCC3)C2)c(C(=O)Nc2ccc(C(=O)N3CCc4cc(C(=O)NC5CC6CCC5O6)sc4-c4ccc(F)cc43)cc2)c1 (stereo not shown)	< 10 nM

Recorded EC50 of O=C(Nc1c(F)cc(F)cc1Cl)c1cc2c(s1)-c1ccc(F)cc1N(C(=O)c1ccc(NC(=O)c3cc(C(F)(F)F)cnc3N3CCC4(CC3)COC4)cc1)CC2 , please.
10 to 50 nM

Then O=C(Nc1c(F)cccc1Cl)c1cc2c(s1)-c1ccc(F)cc1N(C(=O)c1ccc(NC(=O)c3cc(F)cnc3N3CC4(CCOCC4)C3)cc1)CC2 ?
< 10 nM

Then Cc1cnc(N2CC3(CCOCC3)C2)c(C(=O)Nc2ccc(C(=O)N3CCc4cc(C(=O)Nc5cccnn5)sc4-c4ccc(F)cc43)cc2)c1 ?
< 10 nM

Then Cc1cnc(N2CC3(CCOCC3)C2)c(C(=O)Nc2ccc(C(=O)N3CCc4cc(C(=O)Nc5ncccc5F)sc4-c4ccc(F)cc43)cc2)c1 ?
< 10 nM

----------
Measured pEC50 accompanies every entry in the list below.
test system: Human RSV-A (“Long” strain); experiment: RSV in vitro cytoprotection assay (CPE, ATPlite) in HEp-2 cells; assay type: cell-based; conditions: human respiratory syncytial virus, 96 h; HEp-2 cells, 4-day incubation, ATPlite readout; read-out: Human RSV-A (“Long” strain) EC50
pEC50: −log10 of the molar value.

Here's what some known entries look like.
Cc1ccc(C(=O)Nc2ccc(C(=O)N3CCc4c(sc(C(=O)Nc5c(F)cccc5F)c4F)-c4ccccc43)cc2)c(N2CC3(CCOCC3)C2)n1 [Example 213]	> 8.00
O=C(Nc1c(F)cc(F)cc1Cl)c1cc2c(s1)-c1c(cc(F)c(F)c1F)N(C(=O)c1ccc(NC(=O)c3cccnc3N3CC4(CCOCC4)C3)cc1)CC2 [Example 81]	7.30 to 8.00

We now examine a further molecule.
Recorded pEC50 of Cc1ccc(C(=O)Nc2ccc(C(=O)N3CCc4c(sc(NC(=O)c5c(Cl)cccc5Cl)c4F)-c4ccccc43)cc2)c(N2CC3(CCOCC3)C2)n1 [Example 310] , please.
7.30 to 8.00
